Where these numbers come from: paper PMC3817140

- EXPERIMENTAL TARGET: RM.BpuSI (Bacillus pumilus)
- Construct: full-length (REase, helical connector, MTase domain, TRD); recombinant in E. coli ER3081, no tag told; treated with substrate DNA to remove SAM
- Sequence (G1K3S1 1-878): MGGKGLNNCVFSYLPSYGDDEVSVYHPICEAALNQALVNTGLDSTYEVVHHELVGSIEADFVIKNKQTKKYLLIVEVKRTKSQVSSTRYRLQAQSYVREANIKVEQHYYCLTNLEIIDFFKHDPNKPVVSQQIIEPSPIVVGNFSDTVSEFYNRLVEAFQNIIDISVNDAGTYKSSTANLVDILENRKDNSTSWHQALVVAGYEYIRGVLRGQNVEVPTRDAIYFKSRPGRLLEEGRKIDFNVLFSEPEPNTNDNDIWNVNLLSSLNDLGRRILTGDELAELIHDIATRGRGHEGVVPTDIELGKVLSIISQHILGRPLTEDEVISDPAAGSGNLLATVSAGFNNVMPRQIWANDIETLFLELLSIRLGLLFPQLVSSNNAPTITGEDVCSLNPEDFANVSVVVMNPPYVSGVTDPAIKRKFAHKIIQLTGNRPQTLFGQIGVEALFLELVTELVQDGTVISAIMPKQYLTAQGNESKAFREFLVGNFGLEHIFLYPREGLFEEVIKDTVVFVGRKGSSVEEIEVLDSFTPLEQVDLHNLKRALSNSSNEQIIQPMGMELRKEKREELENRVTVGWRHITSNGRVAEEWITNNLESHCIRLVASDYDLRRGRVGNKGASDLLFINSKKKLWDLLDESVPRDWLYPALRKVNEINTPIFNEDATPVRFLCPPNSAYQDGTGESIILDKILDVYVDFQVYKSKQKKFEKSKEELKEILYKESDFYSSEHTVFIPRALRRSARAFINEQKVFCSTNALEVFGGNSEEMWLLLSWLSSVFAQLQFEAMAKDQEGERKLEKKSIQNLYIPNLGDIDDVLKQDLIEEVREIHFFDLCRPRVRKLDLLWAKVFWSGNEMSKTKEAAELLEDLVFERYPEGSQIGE
- PROTOCOL DETAILS: ANS fluorescence titration
REPORTED ENDPOINT: Kd
I'd appreciate it if you included the unit after the number.

For record C[S+](CC[C@H](N)C(=O)O)C[C@H]1O[C@@H](n2cnc3c(N)ncnc32)[C@H](O)[C@@H]1O (some centres unmarked) the listed Kd is 76.4 µM

For record `Nc1ncnc2c1ncn2[C@@H]1O[C@H](C[C@@H](N)CC[C@H](N)C(=O)O)[C@@H](O)[C@H]1O` the listed Kd is 71.1 µM
